# activation listing for each entry below
- assay-remarks: activators reversing PD-1 mediated T-cell inhibition, primary screen, luminescence, primary human CD4 T cells, PD-L1 beads (AID 2316);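 also: 0% = median vehicle wells and 100% = positive control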
- experimental-parameters: CellTiter-Glo 96 h, hits give high values
Fewer than 10 of roughly 29,000 compounds were called active. These entries were drawn from the full list.
Hi! Could you send only the number? It should be in %, unit omitted.

1) COc1ccc(NC(=O)N(C)C[C@H]2Oc3c(NC(=O)Nc4cccc5ccccc45)cccc3C(=O)N([C@@H](C)CO)C[C@H]2C)cc1    0.624

stdin: Query (molecule): `CC(=O)c1cccc(NC(=O)CN(c2ccc(F)c(Cl)c2)S(C)(=O)=O)c1` ; field requested: activation
stdout: 2.89

stdin: And then `COc1ccccc1-n1c(N)cc(=O)nc1SCC(=O)Nc1ccc(Br)cc1` , what is it?
stdout: 1.16

stdin: And then `C[C@@H]1CN([C@H](C)CO)C(=O)Cc2cc(NS(=O)(=O)c3ccc(Cl)cc3)ccc2O[C@H]1CN(C)S(=O)(=O)c1cccs1` , what is it?
stdout: -2.73

stdin: And then `COc1ccc(C(=O)CSc2nnc(-c3cccc(C)c3)n2-c2ccccc2)cc1` , what is it?
stdout: 1.1

stdin: And then `O=C(CCc1nc(-c2ccccc2Cl)no1)Nc1ccc(Cl)c(Cl)c1` , what is it?
stdout: 1.17

stdin: And then `O=C(CN1CCOCC1)Nc1sc2c(c1C(=O)Nc1ccc(Br)cc1)CCC2` , what is it?
stdout: -2.1

stdin: And then CN1CCN(S(=O)(=O)c2ccc(NC(=O)C3CC=CCC3C(=O)O)cc2)CC1 (centres undefined) , what is it?
stdout: 1.99

stdin: And then `C[C@H](CO)N1C[C@H](C)[C@H](CN(C)S(C)(=O)=O)Oc2ccc(NC(=O)CCCN(C)C)cc2C1=O` , what is it?
stdout: 0.789

stdin: And then `C[C@H](CO)N1C[C@H](C)[C@@H](CN(C)Cc2ccccc2)Oc2ccc(NC(=O)CCCN(C)C)cc2C1=O` , what is it?
stdout: 1.04

stdin: And then `Cc1ccc(Cl)cc1NC(=O)CN(c1cccc(Cl)c1C)S(C)(=O)=O` , what is it?
stdout: -5.55

stdin: And then `COc1ccc(S(=O)(=O)Nc2cccc3c2O[C@@H](CN(C)C(=O)Nc2ccccc2)[C@@H](C)CN([C@@H](C)CO)C3=O)cc1` , what is it?
stdout: -2.12

stdin: And then `CC(C)NC(=O)Nc1ccc2c(c1)C(=O)N([C@@H](C)CO)C[C@H](C)[C@@H](CN(C)C)O2` , what is it?
stdout: 0.0718

stdin: And then O=C(OCC1OC(Oc2ccc(O)cc2COC(=O)C2(O)C(O)CCC(O)C2O)C(O)C(O)C1O)c1ccccc1 (centres undefined) , what is it?
stdout: -1.74

stdin: And then `C[C@H](CO)N1C[C@H](C)[C@H](CN(C)CC2CCCCC2)Oc2ccc(NC(=O)CCCCCC(=O)Nc3ccccc3N)cc2CC1=O` , what is it?
stdout: -0.694

stdin: And then `C[C@@H]1CN([C@H](C)CO)C(=O)Cc2cc(NC(=O)NC3CCCCC3)ccc2O[C@H]1CN(C)S(C)(=O)=O` , what is it?
stdout: 2.26

stdin: And then `CC(=O)c1cccc(NC(=O)CN(C)S(=O)(=O)c2ccc3ccccc3c2)c1` , what is it?
stdout: 0.81
